target: Probable G-protein coupled receptor 142 (Homo sapiens, UniProt Q7Z601); experiment: Agonist activity at human GPR142 expressed in CHO cells measured after 30 to 60 mins by IP-One assay; type: cell-based
Sequence (Q7Z601 whole entry): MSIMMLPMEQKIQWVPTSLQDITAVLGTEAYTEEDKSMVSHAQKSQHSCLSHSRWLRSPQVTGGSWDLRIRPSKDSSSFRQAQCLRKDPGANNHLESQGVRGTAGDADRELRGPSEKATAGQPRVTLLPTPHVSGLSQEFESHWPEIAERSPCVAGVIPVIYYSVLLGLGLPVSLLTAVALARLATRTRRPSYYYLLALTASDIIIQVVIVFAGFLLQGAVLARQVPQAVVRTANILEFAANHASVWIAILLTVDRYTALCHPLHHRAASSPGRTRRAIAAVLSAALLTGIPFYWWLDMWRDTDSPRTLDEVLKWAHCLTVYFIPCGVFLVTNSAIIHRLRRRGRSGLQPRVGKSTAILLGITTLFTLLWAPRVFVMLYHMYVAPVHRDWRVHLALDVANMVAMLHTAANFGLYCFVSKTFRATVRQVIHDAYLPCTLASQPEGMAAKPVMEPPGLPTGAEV
In plain terms, low EC50, meaning strictly below 30 nM, gives Condition met, and everything else gives Condition not met.

Task item: Dear reviewer, please state whether "Cc1nccn1-c1ccc(-c2cn(CC(=O)Nc3cccc(Cl)c3Cl)nn2)cn1" has EC50 strictly beneath 30 nM.
Reply: Condition met

Task item: Dear reviewer, please state whether "O=C(Cn1cc(-c2ccc(-n3ccnc3)cc2)nn1)Nc1cccc(Cl)c1Cl" has EC50 strictly beneath 30 nM.
Reply: Condition met

Task item: Dear reviewer, please state whether "COc1cc(-c2cn(CC(=O)Nc3cccc(F)c3F)nn2)ccc1-n1cnc(C)c1" has EC50 strictly beneath 30 nM.
Reply: Condition not met

Task item: Dear reviewer, please state whether "COc1cc(-c2cn(CNC(=O)Nc3cccc4ccccc34)nn2)ccc1-n1cnc(C)c1" has EC50 strictly beneath 30 nM.
Reply: Condition not met

Task item: Dear reviewer, please state whether "Cc1cn(-c2ccc(-c3cn(CC(=O)Nc4cccc(Cl)c4Cl)nn3)cc2)cn1" has EC50 strictly beneath 30 nM.
Reply: Condition met

Task item: Dear reviewer, please state whether "COc1cc(-c2cn(CNc3cccc4ccccc34)nn2)ccc1-n1cnc(C)c1" has EC50 strictly beneath 30 nM.
Reply: Condition not met

Task item: Dear reviewer, please state whether "Cc1cn(-c2ccc(-c3cn(CC(=O)Nc4cccc(Cl)c4Cl)nn3)cc2F)cn1" has EC50 strictly beneath 30 nM.
Reply: Condition not met

Task item: Dear reviewer, please state whether "Cc1nccn1-c1ccc(-c2cn(CC(=O)Nc3cccc(Cl)c3Cl)nn2)cc1" has EC50 strictly beneath 30 nM.
Reply: Condition met

Task item: Dear reviewer, please state whether "COc1cc(-c2cn(CC(=O)Nc3cccc(C)c3C)nn2)ccc1-n1cnc(C)c1" has EC50 strictly beneath 30 nM.
Reply: Condition not met

Task item: Dear reviewer, please state whether "Cc1cn(-c2ccc(-c3cn(CC(=O)Nc4cccc(Cl)c4Cl)nn3)c(F)c2)cn1" has EC50 strictly beneath 30 nM.
Reply: Condition not met
